Sourced from PubChem BioAssay (NCI)

growth inhibition values by entry
Assay name: NCI Yeast Anticancer Drug Screen. Data for the bub3 strain (AID 167)
Experimental parameters: S. cerevisiae bub3 mutant strain, at 5.0 µM (retest, dose inferred, filed as 0.5), stronger effect = higher value
Compounds without any hit were thinned out: in the full panel of roughly 79,000, 15% have a hit.
Report the figure in % without appending any unit label.

Worked cases, answers included:
> print(dat)
                                   compound  unit.label  value.reported
1  CN(C)CC1CC/C(=C\c2ccc(O)cc2)C1=O (configuration not stated)           %             -26
2  CN(C)c1ccc(C(O)(Cc2cccc(C#N)c2)c2ccc(N(C)C)cc2)cc1           %               2
3      COC(=O)c1cc(=O)n(-c2ccccc2OC)c(SC)n1           %              -5
4  C/C=C(/CN/C(=C\[N+](=O)[O-])c1ccccc1)c1ccccc1           %               8
5            COC(=O)c1cc(C)c2sc3ccccc3c2c1C           %             -21

## Input I am curious: what growth inhibition value has been reported for `CCC[CH2][Sn]([CH2]CCC)([O]C(=O)c1cc(F)cc(F)c1)[O]C(=O)c1cc(F)cc(F)c1` ?
## Output 21

## Input For C[CH2][Ge]([CH2]C)([CH2]C)[O]C(=O)C([O][Ge]([CH2]C)([CH2]C)[CH2]C)c1ccccc1 (configuration not stated) , what is its reported growth inhibition?
## Output 5

----------
Assay name: NCI Yeast Anticancer Drug Screen. Data for the sgs1 mgt1 strain (AID 161);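 note: 0% = growth of cultures given vehicle only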
Experimental parameters: S. cerevisiae sgs1 mgt1 strain, at 50.0 µM, stronger effect = higher value
The panel holds about 79,000 compounds, 15% with a hit somewhere; the sample as a whole holds those more often.
Classify by measured growth inhibition: condition met if it is equal to or exceeds 70%, condition not met if it is smaller.

Compound	Answer label
Clc1cccc(N2CCN(c3c4c(nc5ccccc35)CCCCC4)CC2)c1	condition met
O=C1OC(CCCl)(c2ccccc2)CC1CN1CCOCC1 (stereo not drawn)	condition not met
CCOC(=O)[C@]12CCC[C@@]1(O)NC(=O)c1cnccc12	condition met
CN1c2ccccc2C(C)(C)C12C=Cc1cc(O)ccc1O2 (stereo not drawn)	condition not met
CCN(CC)CCNc1nc(N)c2nc(-c3ccccc3)c(-c3ccccc3)nc2n1	condition met

## Input Item CC(=O)O[C@H]1CC[C@]2(C)C3=CC[C@]4(C)[C@@H](C(C)=O)CC[C@H]4[C@@]34C=C[C@]2(C1)C1C(=O)OC(=O)C14 (stereo partly drawn) with growth inhibition of 70% or above?
## Output condition not met

## Input Would you say `Cc1c2ccccc2c(CSC(=N)N)c2ccccc12` shows growth inhibition at minimum 70%?
## Output condition met

## Input Threshold query (growth inhibition >= 70%) on NC(CCC(=O)NC(CS(=O)(=O)O)C(=O)O)C(=O)O (stereo not drawn)
## Output condition met

----------
Assay name: NCI Yeast Anticancer Drug Screen. Data for the mec2-1 strain (AID 157)
Experimental parameters: S. cerevisiae mec2-1 strain, at 5.0 µM (retest, dose inferred, filed as 0.5), stronger effect = higher value
Method: Growth inhibition of yeast strains with defined genetic alterations is measured as a screen for potential anti-cancer activity. Selected strains with alterations in DNA damage repair or cell cycle control were exposed to compounds and growth inhibition was measured relative to vehicle treated controls. The strain used in this assay is mec2-1
Compounds without any hit were thinned out: in the full panel of roughly 79,000, 15% have a hit.
// growth inhibition lookup, one value per entry
Give the quantity in %, number only.

Consider the following illustrative entries.
> print(dat)
                                   compound  value.reported
1                   O=CNNC(=O)Nc1ccc(Cl)cc1              10
2                      CC(=O)O/C=C\COC(C)=O               2
3  O=C(N/C(=C\c1ccccc1Cl)c1nc2ccccc2s1)c1ccccc1              13
4          CCCN(CCC)C(=S)N/N=C(/C)c1ccccc1O             -29
5  CC(=O)OC1(C)C(=C(Cl)Cl)C2c3ccccc3C1c1ccccc12 (centres undefined)              19

## Input Looking for the measured growth inhibition of `c1ccc(CN2CCc3[nH]c4ccccc4c3C2)cc1` , can you help?
## Output -1

## Input Entry `CN(C)c1ccc(N=Nc2cccc3ccccc23)cc1` has what growth inhibition?
## Output 3

## Input Any idea what growth inhibition was measured for N#CC1C=C(Cl)c2ccc(Cl)cc2N1C(=O)c1ccccc1 (centres undefined) ?
## Output 17

## Input Need growth inhibition of `Cc1ccc2c(c1)[n+]([O-])c(N)c(C#N)[n+]2[O-]` , thanks.
## Output -22

## Input Given the compound COc1ccccc1NC(=O)CC(=O)N1N=C(C)C(N=Nc2ccc(C(=O)O)cc2)C1=O (centres undefined) , what is its reported growth inhibition?
## Output 0

## Input Would you kindly share the measured growth inhibition for `OCc1ccccc1CC(O)(c1ccccc1)c1ccccc1` ?
## Output -8

## Input What does the record list as growth inhibition for `COC(=O)c1cc2c(c(C(=O)OC)c1O)C(=O)C=CC2=O` ?
## Output 8

## Input Fill blank: measured growth inhibition of the compound C1CCC(OC2CCCCO2)OC1 (centres undefined) is ____.
## Output -22

## Input // lookup growth inhibition for CCCCCCCCC(C)c1ccccc1O (centres undefined)
## Output -53

----------
Assay name: NCI Yeast Anticancer Drug Screen. Data for the mlh1 rad18 strain (AID 175)
Experimental parameters: S. cerevisiae mlh1 rad18 strain growth inhibition; at 50.0 µM (retest, dose inferred, filed as 5.0)
Compounds without any hit were thinned out: in the full panel of roughly 79,000, 15% have a hit. The source made the active and inactive calls. Rule as the data show it: active = growth inhibition above about 70%; inactive = the rest.
Select the matching outcome among TRUE = active, FALSE = inactive

Some solved cases for reference:
> print(dat)
                                   molecule  answer.label
1    O=S(=O)(O)c1cc2ccccc2c(O)c1N=Nc1ccccc1          TRUE
2      O=C(O)c1ccc2c3c(ncnc13)-c1ccccc1C2=O          TRUE
3  O=c1[nH]c(=S)[nH]c(-c2ccccc2)c1Cc1c(O)ccc2ccccc12         FALSE

## Input Returns: the outcome recorded for CCN(CC)CCOC(=O)C1C(c2ccccc2)C1(c1ccccc1)c1ccccc1 (stereo unspecified) in this assay.
## Output TRUE

## Input What classification did `OCCCNc1nc2ccc(Cl)cc2c2ccccc12` end up with in this test?
## Output FALSE

## Input Hello, I am checking results. What call was entered for `c1ccc2c(c1)Nc1ccccc1[P+]21c2ccccc2Nc2ccccc21` ?
## Output TRUE

## Input Answer briefly: the call reported for CCCCCCCNc1ccc2c(cc1=O)C(NC(C)=O)CCc1cc(OC)c(OC)c(OC)c1-2 (stereo unspecified) in this assay.
## Output TRUE

## Input What is the recorded call for this molecule in the test? `CN(C)CCOc1ccc2c(c1)C(=O)/C(=C\c1ncc([N+](=O)[O-])n1C)C2`
## Output TRUE

## Input Please let me know the test result on file for COc1cc(OC)cc(C2OC3=C(Nc4ccc([N+](=O)[O-])cc4N3)C2=O)c1 (stereo unspecified) .
## Output FALSE

## Input For CCCCCCCC1SCC(=O)N1c1nncs1 (stereo unspecified) , which call appears in the assay record?
## Output TRUE

## Input Lab log entry: CC1SC(=S)N(c2ccc(Cl)cc2)C1=O (stereo unspecified) — outcome as called in the assay?
## Output FALSE

## Input What did the test return for CC(=O)OC12CC(C(F)(F)F)(C(F)(F)F)OC1(OC(C)=O)CC(C(F)(F)F)(C(F)(F)F)O2 (stereo unspecified) ?
## Output FALSE

## Input Which outcome was assigned to `CCc1ccc(-c2ccccc2)cc1` in this test?
## Output FALSE

## Input What was the test verdict on `Cc1c(C)c2cc3c(=O)ccoc3c(C)c2oc1=O` ?
## Output FALSE

## Input Hi, do you know how CCOC(=O)C(Br)C(Br)c1cccc([N+](=O)[O-])c1 (stereo unspecified) came out in this test?
## Output TRUE

----------
Assay name: NCI Yeast Anticancer Drug Screen. Data for the mlh1 rad18 strain (AID 175)
Experimental parameters: S. cerevisiae mlh1 rad18 strain growth inhibition; at 50.0 µM; stronger effect = higher value
Protocol: Growth inhibition of yeast strains with defined genetic alterations is measured as a screen for potential anti-cancer activity. Selected strains with alterations in DNA damage repair or cell cycle control were exposed to compounds and growth inhibition was measured relative to vehicle treated controls. The strain used in this assay is mlh1 rad18
About 79,000 compounds went through this panel and 15% of them were active in at least one assay; those are over-represented in the sample as a whole.
In this section, each of the compounds is paired with its reported growth inhibition.
Kindly answer with a numeric value in %, unit omitted.

> print(dat)
                                   compound   observation.type  value.reported
1            Cc1c2ccccc2c(C)c2c1ccc1ccccc12  growth inhibition            98.1
2  O=[N+]([O-])c1ccc(Cl)cc1C=NC12CC3CC(CC(C3)C1)C2  growth inhibition            54.6
3  O=C(CCN(Cc1ccccc1)Cc1ccccc1)c1ccc2ccccc2c1  growth inhibition            81.4
4       CN(C)CCNc1ccc(O)c2sc3ccccc3c(=O)c12  growth inhibition              51
5  O=C(O)C(CS)Nc1c2ccccc2nc2ccccc12 (stereo not given)  growth inhibition            91.2

## Input Looking for the measured growth inhibition of `O=[N+]([O-])c1ccc(NSc2ccccc2)cc1` , can you help?
## Output 88.2

## Input Can you look up the measured growth inhibition of `COC(=O)c1cc2c(c(C(=O)OC)c1O)C(=O)C=CC2=O` for me?
## Output 70.6

## Input I would be grateful if you could share the reported growth inhibition for `Cc1[nH]c2ccccc2c1C(c1ccccc1)c1c(C)[nH]c2ccccc12` .
## Output 94.7

## Input May I ask what growth inhibition has been recorded for `CCCCOc1c(OCCCC)c(=O)c1=O` ?
## Output 40.5

## Input Query (compound): `COC(=O)C(C#N)=C(SC)SC` ; field requested: growth inhibition
## Output 99.1

## Input So what's the measured growth inhibition for this one? `Cc1nc(Nc2c(C)cccc2C)c2c(C)c[nH]c2n1`
## Output 90.3

## Input Which measured growth inhibition value corresponds to `N=C(N)c1ccc2oc3ccc(C(=N)N)cc3c(=O)c2c1` ?
## Output 73.4

## Input Which growth inhibition value belongs to `CC(=O)O[C@]1(C(C)=O)CC[C@H]2[C@@H]3C[C@H](C)C4=CC(=O)NCC[C@]4(C)[C@H]3CC[C@@]21C` ?
## Output 94.5

## Input Bench note: what growth inhibition did `CCCCCCCCCCCC1=NCCN1CCNCCCC` show?
## Output 98.8

## Input Which growth inhibition is reported for this compound? `CSc1ccc(/C=N/NC(N)=S)cc1`
## Output 84.7

## Input Tell me the measured growth inhibition of CCS(CC)(CC)CC1CCCC2=CCC(P(=O)(c3ccccc3)c3ccccc3)CC21 (stereo not given) , please.
## Output 71.7

## Input Fill blank: measured growth inhibition of the compound Cc1cccc2c1C1OC(=O)C3CCC=C2C31 (stereo not given) is ____.
## Output 41.8

## Input Sample `CCOC(=O)C(=O)Nc1ccc(Cl)cc1Cl` — what was its growth inhibition?
## Output 19.1

## Input Quick one: growth inhibition of O=C(O)C1C(C(=O)O)C23CC2(C(=O)O)C2(C(=O)O)CCC3=C3CCCC312 (stereo not given) ?
## Output 67.8

## Input What does the record list as growth inhibition for `CCOc1ccc(-c2nc3ccc(-c4nc5ccc(N6CCN(C)CC6)cc5[nH]4)cc3[nH]2)cc1` ?
## Output 89

## Input Look up growth inhibition: `CCCc1cc(=O)oc2c3c(c4c(c12)OC(C)(C)CC4)O[C@H](C)[C@@H](C)[C@H]3O`
## Output 86.5

## Input Dear colleague, I am looking for the recorded growth inhibition of the following compound: Clc1ccc(CN2CCCN(Cc3ccc(Cl)cc3)C2C2CCC=CO2)cc1 (stereo not given)
## Output 45

## Input Any idea what growth inhibition was measured for COc1cc2c(cc1OC)C(Cl)C(c1ccc(F)cc1)=C2Cl (stereo not given) ?
## Output -3.4

## Input I'd like to know its growth inhibition. The compound in question is `O=C(N/C(=C\c1ccccc1Cl)c1nc2ccccc2s1)c1ccccc1`
## Output 99.1

## Input Which growth inhibition is reported for this compound? `COc1cnn(-c2ccccc2)c(=O)c1SCc1ccc(Cl)c(Cl)c1`
## Output 37.4
